Parameter GLC: see the listing below.
Species: Rattus norvegicus
Test: Open TG-GATES - Regimen: Daily Repeat
Assay type: toxicity, organism-based, Sprague-Dawley
Parameters: regimen Daily Repeat, gender Male, age 6 weeks
Conditions: in vivo, po, 0 mg/kg, […], tissue Plasma, route gavage, dose level Control, time 14 day
# value in mg/dL; strip the unit string

// worked examples, GLC included
compound	value kind	number
NC1=NC(=O)C(c2ccccc2)O1 (stereo not drawn) [PEMOLINE]	GLC	180.2
CN1C(=O)CCS(=O)(=O)C1c1ccc(Cl)cc1 (stereo not drawn) [CHLORMEZANONE]	GLC	191.6
CN/C(=N/CCSCc1nc[nH]c1C)NC#N [CIMETIDINE]	GLC	215.2

Below: the item to evaluate.
Record Cc1nnc2n1-c1ccc(Cl)cc1C(c1ccccc1Cl)=NC2 [TRIAZOLAM] , field GLC: 172.4

====

Some compounds, each annotated with its measured AST.
Species on record: Rattus norvegicus
Test: Open TG-GATES - Regimen: Single
Format: toxicity, organism-based, Sprague-Dawley
Design: regimen Single, gender Male, age 6 weeks
Details: in vivo, po, 300 mg/kg, 9 h, tissue Plasma, route gavage, dose level Middle
Please state the figure in IU/L; there is no need to write the unit.

compound	number
O=C(OC[C@H]1O[C@@H](OC(=O)c2cc(O)c(O)c(OC(=O)c3cc(O)c(O)c(O)c3)c2)[C@H](OC(=O)c2cc(O)c(O)c(OC(=O)c3cc(O)c(O)c(O)c3)c2)[C@@H](OC(=O)c2cc(O)c(O)c(OC(=O)c3cc(O)c(O)c(O)c3)c2)[C@@H]1OC(=O)c1cc(O)c(O)c(OC(=O)c2cc(O)c(O)c(O)c2)c1)c1cc(O)c(O)c(OC(=O)c2cc(O)c(O)c(O)c2)c1 [TANNIC ACID]	60.6
COC(=O)C1=C(C)NC(C)=C(C(=O)OC)C1c1ccccc1[N+](=O)[O-] [NIFEDIPINE]	76.6
CNC(=C[N+](=O)[O-])NCCSCc1ccc(CN(C)C)o1 [RANITIDINE]	61
CN/C(=N/CCSCc1nc[nH]c1C)NC#N [CIMETIDINE]	58.6

We next turn to a different compound, shown below.
Lookup result for Cc1nnc2n1-c1ccc(Cl)cc1C(c1ccccc1Cl)=NC2 [TRIAZOLAM] ; measured AST: 65.2

====

Species: Rattus norvegicus
Assay: Open TG-GATES - Regimen: Daily Repeat
Assay type: toxicity, organism-based, Sprague-Dawley
Design: regimen Daily Repeat, gender Male, age 6 weeks
Details: in vivo, po, 0 mg/kg, […], tissue Plasma, route gavage, dose level Control, time 28 day
Entries and their BUN
Give just the number in mg/dL; leave the unit off.

Reference set, count: 8
molecule	BUN / mg/dL
Cc1nnc2n1-c1ccc(Cl)cc1C(c1ccccc1Cl)=NC2 [TRIAZOLAM]	15.4
CN1C(=O)CCS(=O)(=O)C1c1ccc(Cl)cc1 (stereo not drawn) [CHLORMEZANONE]	14
COC(=O)C1=C(C)NC(C)=C(C(=O)OC)C1c1ccccc1[N+](=O)[O-] [NIFEDIPINE]	17.4
CC(C)NNC(=O)c1ccncc1 [IPRONIAZID]	17.4
Nc1c2c(nc3ccccc13)CCCC2 [TACRINE]	18.6
CNC(=C[N+](=O)[O-])NCCSCc1ccc(CN(C)C)o1 [RANITIDINE]	17.2
NC1=NC(=O)C(c2ccccc2)O1 (stereo not drawn) [PEMOLINE]	16.6
CCCc1cc(=O)[nH]c(=S)[nH]1 [PROPYLTHIOURACIL]	20.6

Recorded BUN (molecule CCOc1ccc(NC(C)=O)cc1 [PHENACETIN] ): 17.2

Data point: CN(C)CCC(c1ccc(Cl)cc1)c1ccccn1 (stereo not drawn) [CHLORPHENIRAMINE] ; BUN = 17.4

Value of BUN reported for the molecule O=C(OC[C@H]1O[C@@H](OC(=O)c2cc(O)c(O)c(OC(=O)c3cc(O)c(O)c(O)c3)c2)[C@H](OC(=O)c2cc(O)c(O)c(OC(=O)c3cc(O)c(O)c(O)c3)c2)[C@@H](OC(=O)c2cc(O)c(O)c(OC(=O)c3cc(O)c(O)c(O)c3)c2)[C@@H]1OC(=O)c1cc(O)c(O)c(OC(=O)c2cc(O)c(O)c(O)c2)c1)c1cc(O)c(O)c(OC(=O)c2cc(O)c(O)c(O)c2)c1 [TANNIC ACID] is 20.4

Data point: CN/C(=N/CCSCc1nc[nH]c1C)NC#N [CIMETIDINE] ; BUN = 16.2

Please fill in: BUN reported for Brc1ccccc1 [BROMOBENZENE] = 16

====

Species: Rattus norvegicus
Experiment: Open TG-GATES - Regimen: Daily Repeat
Assay type: toxicity, organism-based, Sprague-Dawley
Design: regimen Daily Repeat, gender Male, age 6 weeks
Conditions: in vivo, po, 1000 mg/kg, 72 h, tissue Blood, route gavage, dose level High, time 3 day
value kind: Mono (%)
Express the result in % but write the number alone.

Consider the reported Mono for these molecules:
molecule	uom	Mono
CN/C(=N/CCSCc1nc[nH]c1C)NC#N [CIMETIDINE]	%	2.6
CCOc1ccc(NC(C)=O)cc1 [PHENACETIN]	%	3.2
CNC(=C[N+](=O)[O-])NCCSCc1ccc(CN(C)C)o1 [RANITIDINE]	%	3
COC(=O)C1=C(C)NC(C)=C(C(=O)OC)C1c1ccccc1[N+](=O)[O-] [NIFEDIPINE]	%	3.2

For this molecule ( Cc1nnc2n1-c1ccc(Cl)cc1C(c1ccccc1Cl)=NC2 [TRIAZOLAM] ), measured Mono is 3.6

Form: molecule = O=C(OC[C@H]1O[C@@H](OC(=O)c2cc(O)c(O)c(OC(=O)c3cc(O)c(O)c(O)c3)c2)[C@H](OC(=O)c2cc(O)c(O)c(OC(=O)c3cc(O)c(O)c(O)c3)c2)[C@@H](OC(=O)c2cc(O)c(O)c(OC(=O)c3cc(O)c(O)c(O)c3)c2)[C@@H]1OC(=O)c1cc(O)c(O)c(OC(=O)c2cc(O)c(O)c(O)c2)c1)c1cc(O)c(O)c(OC(=O)c2cc(O)c(O)c(O)c2)c1 [TANNIC ACID] ; Mono = 10.2

====

Here, each record is paired with measured BUN data.
Species on record: Rattus norvegicus
Assay: Open TG-GATES - Regimen: Single
Type: toxicity, organism-based, Sprague-Dawley
Parameters: regimen Single, gender Male, age 6 weeks
Conditions: in vivo, po, 1000 mg/kg, 3 h, tissue Plasma, route gavage, dose level High
Give just the numeric value; mg/dL need not be written.

Solved entries (count: 4):
compound	BUN [mg/dL]
O=C(OC[C@H]1O[C@@H](OC(=O)c2cc(O)c(O)c(OC(=O)c3cc(O)c(O)c(O)c3)c2)[C@H](OC(=O)c2cc(O)c(O)c(OC(=O)c3cc(O)c(O)c(O)c3)c2)[C@@H](OC(=O)c2cc(O)c(O)c(OC(=O)c3cc(O)c(O)c(O)c3)c2)[C@@H]1OC(=O)c1cc(O)c(O)c(OC(=O)c2cc(O)c(O)c(O)c2)c1)c1cc(O)c(O)c(OC(=O)c2cc(O)c(O)c(O)c2)c1 [TANNIC ACID]	12.2
Cc1nnc2n1-c1ccc(Cl)cc1C(c1ccccc1Cl)=NC2 [TRIAZOLAM]	9.4
CN/C(=N/CCSCc1nc[nH]c1C)NC#N [CIMETIDINE]	8.6
CNC(=C[N+](=O)[O-])NCCSCc1ccc(CN(C)C)o1 [RANITIDINE]	9.4

Memo: COC(=O)C1=C(C)NC(C)=C(C(=O)OC)C1c1ccccc1[N+](=O)[O-] [NIFEDIPINE] , reported BUN: 26.2

====

Species: Rattus norvegicus
Assay: Open TG-GATES - Regimen: Single
Type: toxicity, organism-based, Sprague-Dawley
Design: regimen Single, gender Male, age 6 weeks
Details: in vivo, po, 300 mg/kg, 3 h, tissue Plasma, route gavage, dose level Middle
value kind: DBIL (mg/dL)
Could you give me the number in mg/dL? Just the number is fine.

# example entries with known answers
molecule	DBIL (mg/dL)
Cc1nnc2n1-c1ccc(Cl)cc1C(c1ccccc1Cl)=NC2	0.008
COC(=O)C1=C(C)NC(C)=C(C(=O)OC)C1c1ccccc1[N+](=O)[O-]	0.01
O=C(OC[C@H]1O[C@@H](OC(=O)c2cc(O)c(O)c(OC(=O)c3cc(O)c(O)c(O)c3)c2)[C@H](OC(=O)c2cc(O)c(O)c(OC(=O)c3cc(O)c(O)c(O)c3)c2)[C@@H](OC(=O)c2cc(O)c(O)c(OC(=O)c3cc(O)c(O)c(O)c3)c2)[C@@H]1OC(=O)c1cc(O)c(O)c(OC(=O)c2cc(O)c(O)c(O)c2)c1)c1cc(O)c(O)c(OC(=O)c2cc(O)c(O)c(O)c2)c1	0.02
CN/C(=N/CCSCc1nc[nH]c1C)NC#N	0.072

Recorded DBIL (compound CNC(=C[N+](=O)[O-])NCCSCc1ccc(CN(C)C)o1 ): 0.07

Cited source for all entries: ChEMBL document CHEMBL3885861
